These measurements were taken from paper PMC3817407.

// fold repression lookup, one value per entry
# ASSAY SYSTEM: T1, ECF02_915
# T1 chain: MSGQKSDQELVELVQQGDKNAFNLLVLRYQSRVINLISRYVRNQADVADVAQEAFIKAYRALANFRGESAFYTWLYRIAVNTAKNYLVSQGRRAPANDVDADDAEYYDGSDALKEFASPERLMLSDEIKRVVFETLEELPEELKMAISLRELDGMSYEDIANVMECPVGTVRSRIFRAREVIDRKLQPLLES
// no unit, no text: just the number

Take a look at these entries with their results.
BINDER	fold repression
AS30_35 (protein) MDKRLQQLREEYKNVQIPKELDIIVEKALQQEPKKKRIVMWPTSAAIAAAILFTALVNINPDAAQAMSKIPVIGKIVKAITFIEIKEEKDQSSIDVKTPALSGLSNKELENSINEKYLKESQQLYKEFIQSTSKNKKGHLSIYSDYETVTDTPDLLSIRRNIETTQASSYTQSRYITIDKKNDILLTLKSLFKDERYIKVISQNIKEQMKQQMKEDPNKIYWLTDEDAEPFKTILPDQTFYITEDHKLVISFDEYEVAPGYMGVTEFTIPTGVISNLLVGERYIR	2.15
AS03_1244 (protein) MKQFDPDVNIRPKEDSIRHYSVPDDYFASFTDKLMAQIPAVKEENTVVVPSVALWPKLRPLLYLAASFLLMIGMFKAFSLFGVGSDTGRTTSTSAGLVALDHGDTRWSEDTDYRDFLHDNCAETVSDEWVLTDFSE	2

Which fold repression is listed for AS15_436 (protein) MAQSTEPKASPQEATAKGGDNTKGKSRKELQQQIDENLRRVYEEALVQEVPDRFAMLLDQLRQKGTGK ?
1.55
